Experiment: qHTS assay to identify small molecule agonists of the sonic hedgehog signaling (Shh) pathway - cell viability counter screen (AID 1259366); further: nearly all actives have a fitted effect of over 50% in size
Conditions: NIH/3T3 Gli1-Luc viability, CellTiter-Fluor, 24 h; series mostly up to 92.4 µM
Inconclusive results are not listed. Calls of active or inactive are those of the source. The call rests on the fitted dose curve; in most records, active means well fitted cell-killing curve with a large enough effect in the repeat runs; inconclusive means weak or mixed curves, or effect the other way; inactive means flat fitted curve, though single readings scatter.
Outcomes: true (1) (active), false (0) (inactive)

> print(dat)
                               entry.smiles  assigned.class
1                                   N#CCCCl       false (0)
2       O=C(Nc1ccc(Br)cc1)c1cc(Br)cc(Br)c1O        true (1)
3                       Oc1cc(Cl)c(Cl)cc1Cl       false (0)
4  CCCCN(CC)c1c([N+](=O)[O-])cc(C(F)(F)F)cc1[N+](=O)[O-]       false (0)
5      O=C(NC(=O)c1c(F)cccc1F)Nc1ccc(Cl)cc1       false (0)
6                    N#Cc1cc(Br)c(O)c(Br)c1       false (0)
7  CC(C)(c1cc(Cl)c(O)c(Cl)c1)c1cc(Cl)c(O)c(Cl)c1       false (0)

----------
Assay: A CellTox Green Cytotoxicity Assay to monitor cytotoxicity in HepG2 cells - 24 hour (AID 1224878); further: nearly all actives have a fitted effect of over 45% in size
Settings: CellTox Green fluorescence; series mostly up to 76.8 µM
Source text: National Center for Advancing Translational Sciences [NCATS] NIH Chemical Genomics Center [NCGC] U.S. Environmental Protection Agency [EPA] National Institutes of Environmental Health Sciences [NIEHS] National Toxicology Program [NTP] Cell-based models are critical for drug discovery. […] Viable cells produce no appreciable increases in fluorescence. Therefore, the fluorescence signal produced by the binding interaction with dead cell DNA is proportional to cytotoxicity. […]
Results filed as inconclusive are left out. The source made the active and inactive calls. Calls follow the shape of the dose curve; as a rule, active = well fitted activation curve with a large enough effect in the repeat runs; inconclusive = weak or mixed curves; inactive = flat fitted curve, though single readings scatter.
Outcomes: active, inactive

> print(dat)
                                    compound  assigned.class
 1  CCCCCCCCCCCOC(=O)c1ccccc1C(=O)OCCCCCCCCCCC        inactive
 2         CCCCNC(=O)n1c(NC(=O)OC)nc2ccccc21        inactive
 3     CCCCC(CC)COC(=O)Cl (stereo not drawn)        inactive
 4  CCCCN(CC)c1c([N+](=O)[O-])cc(C(F)(F)F)cc1[N+](=O)[O-]        inactive
 5      CCC(C)c1ccc(O)cc1 (stereo not drawn)          active
 6  CCC(C)c1cc([N+](=O)[O-])cc([N+](=O)[O-])c1O (stereo not drawn)        inactive
 7                           COc1ccc(C=O)cc1        inactive
 8                       C1=Cc2cccc3cccc1c23        inactive
 9              CCOCN(C(=O)CCl)c1c(C)cccc1CC        inactive
10            COP(=S)(OC)Oc1cc(Cl)c(Cl)cc1Cl        inactive
11        O=P(Oc1ccccc1)(Oc1ccccc1)Oc1ccccc1        inactive
12                         CC(C)(C)c1ccccc1O          active
13                                c1nc[nH]n1        inactive
14  CCOc1cc(Oc2ccc(C(F)(F)F)cc2Cl)ccc1[N+](=O)[O-]        inactive
15            Cc1ccc2c(c1N)C(=O)c1ccccc1C2=O        inactive
16      O=C(NC(=O)c1c(F)cccc1F)Nc1ccc(Cl)cc1        inactive
17                             Cc1cccc(N)c1N        inactive
18  c1cc(OCC2CO2)ccc1Cc1ccc(OCC2CO2)cc1 (stereo not drawn)        inactive
19                   Cc1cc(Cl)ccc1OCCCC(=O)O        inactive
20                               CC(C)NC(C)C        inactive
21               CNC(=O)Oc1cccc2c1OC(C)(C)O2        inactive
22  O=C(O)C(F)(F)C(F)(F)C(F)(F)C(F)(F)C(F)(F)C(F)(F)C(F)(F)F        inactive
23                          O=C(CCl)c1ccccc1        inactive

----------
Assay: qHTS RealTime-Glo MT Cell Viability Assay in HEK293 cells - 8 hour (AID 1224887); further: nearly all actives have a fitted effect of over 50% in size
Conditions: RealTime-Glo luminescence; series mostly up to 76.8 µM
Records with an inconclusive call do not appear. Active and inactive are the calls of the source. The call rests on the fitted dose curve; in most records, active means well fitted cell-killing curve with a large enough effect in the repeat runs; inconclusive means weak or mixed curves, or effect the other way; inactive means flat fitted curve, though single readings scatter.
Outcomes: y (active), n (inactive)

> print(dat)
                                    molecule  assigned.class
 1                O=[N+]([O-])c1cccc2ccccc12               n
 2                          O=C1C=CC(=O)C=C1               n
 3                                  OCC(O)CO               n
 4               Oc1c(Cl)c(Cl)c(Cl)c(Cl)c1Cl               n
 5  C#CCOS(=O)OC1CCCCC1Oc1ccc(C(C)(C)C)cc1 (stereo not drawn)               y
 6         CC(C)N(C(=O)SCC(Cl)=C(Cl)Cl)C(C)C               n
 7  Cc1ccc(OP(=O)(Oc2ccc(C)cc2)Oc2ccc(C)cc2)cc1               n
 8               Nc1ccc(-c2ccc(N)c(N)c2)cc1N               n
 9  C#C[C@]1(O)CC[C@H]2[C@@H]3CCC4=CC(=O)CC[C@]4(C)[C@H]3CC[C@@]21C               n
10     C=C(C)C(=O)OCC1CO1 (stereo not drawn)               n
11  CC1(C)C(C=C(Cl)Cl)C1C(=O)OC(C#N)c1cccc(Oc2ccccc2)c1 (stereo not drawn)               n
12              CCc1cccc(CC)c1N(COC)C(=O)CCl               n
13             c1ccc(P(c2ccccc2)c2ccccc2)cc1               n

----------
Assay: qHTS RealTime-Glo MT Cell Viability Assay in HEK293 cells - 16 hour (AID 1224872); further: nearly all actives have a fitted effect of over 50% in size
Settings: RealTime-Glo luminescence; series mostly up to 76.8 µM
Inconclusive results are not listed. Calls of active or inactive are those of the source. Calls follow the shape of the dose curve; as a rule, active = well fitted cell-killing curve with a large enough effect in the repeat runs; inconclusive = weak or mixed curves, or effect the other way; inactive = flat fitted curve, though single readings scatter.
Outcomes: active, inactive

> print(dat)
                                    molecule  assigned.class
 1                         CCOc1cc(C=O)ccc1O        inactive
 2                                   N#CCCCl        inactive
 3               Nc1ccc(-c2ccc(N)c(N)c2)cc1N        inactive
 4        O=P(Oc1ccccc1)(Oc1ccccc1)Oc1ccccc1        inactive
 5  CCC(C)c1cc([N+](=O)[O-])cc([N+](=O)[O-])c1O (centres undefined)        inactive
 6                                 Nc1cccnc1        inactive
 7    CCCCC(CC)COC(=O)Cl (centres undefined)        inactive
 8  CCCCN(CC)c1c([N+](=O)[O-])cc(C(F)(F)F)cc1[N+](=O)[O-]        inactive
 9  CC(C)C(=O)OCC(C)(C)C(OC(=O)C(C)C)C(C)C (centres undefined)        inactive
10  CCCCCCCCCCCOC(=O)c1ccccc1C(=O)OCCCCCCCCCCC        inactive
11                         CC(C)(C)c1ccccc1O        inactive
12           CCCCOCCOP(=O)(OCCOCCCC)OCCOCCCC        inactive
13  O=c1oc2ccccc2c(O)c1C(CC(O)c1ccc(-c2ccc(Br)cc2)cc1)c1ccccc1 (centres undefined)        inactive
14                               CC(C)NC(C)C        inactive
15                   Cc1cc(Cl)ccc1OCCCC(=O)O        inactive
16                          O=C1C=CC(=O)C=C1        inactive
17                           COc1ccc(C=O)cc1        inactive
18              CNC(=O)N(C)c1nnc(C(C)(C)C)s1        inactive
19                         Nc1ccc(Cl)c(Cl)c1        inactive
20               CNC(=O)Oc1cccc2c1OC(C)(C)O2        inactive
21     O=[N+]([O-])c1ccc(O)c([N+](=O)[O-])c1        inactive
22      CCCCCCCCOC(=O)c1ccccc1C(=O)OCCCCCCCC        inactive
23      CCN(CC)C(=O)/C(Cl)=C(\C)OP(=O)(OC)OC        inactive
24                                 NNC(=S)NN        inactive
25  CCOC(=O)C(C)OC(=O)c1cc(Oc2ccc(C(F)(F)F)cc2Cl)ccc1[N+](=O)[O-] (centres undefined)          active
26    C=C(C)C(=O)OCC1CO1 (centres undefined)        inactive
27                                CCN(CC)N=O        inactive
28  CC(C)=CC1C(C(=O)OCc2coc(Cc3ccccc3)c2)C1(C)C (centres undefined)        inactive
29                                  Nn1cnnc1        inactive
